Assay: Solubility of synthetic peptides in buffer
Assay type: physicochemical
Settings: peptides dissolved in 20 mM Tris-HCl, pH 8.0, 250 mM NaCl; unpurified preparations
measured.attribute: Solubility

DVVQDVPDPERKTPRVTGG [Peptide J]	soluble
KTPAQGLARKLHFSTAPPNP [Peptide B]	soluble
GSHMARTAPTRSKTPAQGLA [Peptide A]	soluble
FSTAPPNPDAPWTPRVAGFN [Peptide C]	soluble
ITTIRVTVCEGKNLLQRANE [Peptide H]	soluble

# lookup: Solubility of RMAAVQLWDMSRPRTDEDLN [Peptide F]
soluble

# lookup: Solubility of NLLQRANELVNPDVVQDVPD [Peptide I]
soluble

* * *

Biological target: VP16/VP22trunc interaction (Human herpesvirus 1, UniProt P06492)
Construct: Plasmid pETVP16 was used to express full-length VP16 under the control of the T7 RNA polymerase promoter; made in house; host or cells: E. coli BL21(DE3)
Sequence (P06492 whole entry): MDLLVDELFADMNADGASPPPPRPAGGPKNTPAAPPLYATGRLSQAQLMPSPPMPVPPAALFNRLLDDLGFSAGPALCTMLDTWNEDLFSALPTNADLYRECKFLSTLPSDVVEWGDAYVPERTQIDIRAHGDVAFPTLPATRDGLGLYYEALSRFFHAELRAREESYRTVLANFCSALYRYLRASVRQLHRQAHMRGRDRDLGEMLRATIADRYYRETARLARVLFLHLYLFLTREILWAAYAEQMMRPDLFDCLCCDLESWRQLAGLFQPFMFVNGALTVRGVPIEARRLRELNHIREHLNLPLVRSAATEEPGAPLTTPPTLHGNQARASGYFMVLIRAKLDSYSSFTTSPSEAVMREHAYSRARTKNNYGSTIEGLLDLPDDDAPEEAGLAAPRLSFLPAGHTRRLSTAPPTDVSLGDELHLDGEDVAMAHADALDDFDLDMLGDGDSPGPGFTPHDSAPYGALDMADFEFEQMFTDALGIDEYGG
Assay: Far Western analysis of peptides blocking VP16 binding to immobilised VP22trunc
Parameters: species or system HSV-1
Settings: strips pre-incubated with 1 mg of crude peptide; FIG. 7A
measured.attribute: Blocking of VP16 binding to immobilised VP22trunc (Far Western), crude peptides

FSTAPPNPDAPWTPRVAGFN [Peptide C]	not prevented
RMAAVQLWDMSRPRTDEDLN [Peptide F]	not prevented
